Kindly state photoluminescence quantum yield for each of the entries shown.
- TEST_SUMMARY: photoluminescence quantum yield (fraction); solvent given as SMILES
- APPLIED_CONDITIONS: in C1CCOC1

O=c1oc2ccccc2cc1-c1ccc([N+](=O)[O-])cc1 = 0.006
CCCCCCCCC1(CCCCCCCC)c2cc(-c3ccc(C=C4C(=O)c5ccccc5C4=O)cc3)ccc2-c2ccc(-c3ccc(C=C4C(=O)c5ccccc5C4=O)cc3)cc21 = 0.048
Cc1cc2c(o1)=CC1=Cc3cc4oc(C)cc4n3[B-](F)(F)[N+]=21 = 0.93

# next molecule below
query: Please look at this molecule and report its photoluminescence quantum yield: Cc1cc(C)c([B-]2(c3c(C)cc(C)cc3C)[O+]=P(c3ccccc3)(c3ccccc3)c3ccsc3-c3sccc32)c(C)c1
result: 0.23

###

Kindly state photoluminescence quantum yield for each of the entries shown.
- TEST_SUMMARY: photoluminescence quantum yield (fraction); solvent given as SMILES
- APPLIED_CONDITIONS: in ClCCl
Numbers only.

Recorded photoluminescence quantum yield, per entry:
COc1cc(C2=CC3=C(c4c(C)cc(C)cc4C)c4cc(-c5cc(OC)c(OC)c(OC)c5)c(-c5cc(OC)c(OC)c(OC)c5)n4[B-](F)(F)[N+]3=C2c2cc(OC)c(OC)c(OC)c2)cc(OC)c1OC = 0.05
CCn1c2ccc(-c3cccs3)cc2c2cc(-c3cccs3)ccc21 = 0.047

Required: photoluminescence quantum yield, one value per compound below.
1. CC(C)[Si](C#Cc1ccc2c(C#C[Si](C(C)C)(C(C)C)C(C)C)cc3c4cc(C#C[Si](C(C)C)(C(C)C)C(C)C)ccc4c(C#C[Si](C(C)C)(C(C)C)C(C)C)cc3c2c1)(C(C)C)C(C)C
2. N#Cc1ccc(-c2cn3cc(-c4ccccc4)c[n+]3[n-]2)cc1
3. O=P1(c2ccccc2)C(c2ccc(N(c3ccccc3)c3ccccc3)cc2)=Cc2cc3ccccc3cc21 (configuration not stated)
4. COc1cc2c(cc1OC)C1=C[C@H](c3ccc(Cl)cc3)C3(C(C#N)=C(C#N)N1CC2)c1ccccc1-c1ccccc13
5. c1ccc(Cc2c3ccc(=[N+]4CCCCC4)cc-3oc3cc(N4CCCCC4)ccc23)cc1

result:
[0.741, 0.48, 0.85, 0.00044, 0.87]

###

- TEST_SUMMARY: photoluminescence quantum yield (fraction); solvent given as SMILES
- APPLIED_CONDITIONS: in O
Kindly state photoluminescence quantum yield for each of the entries shown.
Numbers only.

Recorded photoluminescence quantum yield, per entry:
CCCN1C(=O)C(=CC=CC=C2Oc3ccccc3N2CCCS(=O)(=O)[O-])C(=O)N(CCC)C1=S = 0.04
CC(=O)OCCOCCN1C(=O)c2cc(NCCOCCO)c3c4c(cc(NCCOCCO)c(c24)C1=O)C(=O)N(CCOCCOC(C)=O)C3=O = 0.03

query: Please look at this compound and report its photoluminescence quantum yield: CC[N+]1(CC)CN2C(C)=CC(C)=C(C(=O)O)C2=N1
result: 0.622

###

- TEST_SUMMARY: photoluminescence quantum yield (fraction); solvent given as SMILES
- APPLIED_CONDITIONS: in OCCO
Kindly state photoluminescence quantum yield for each of the entries shown.
Numbers only.

Recorded photoluminescence quantum yield, per entry:
CN(C)c1ccc(/C=C/C=C/c2nc3ccccc3o2)cc1 = 0.0088
N#Cc1cccc2c(N)c(-c3nn([C@H]4C[C@H](O)[C@@H](CO)O4)c4ncnc(N)c34)ccc12 = 0.08
CCN(CC)c1ccc(/C=C/C2=[O+][B-](F)(F)Oc3c2c(=O)oc2cc(N(CC)CC)ccc32)cc1 = 0.072
NC(=O)CC[C@H](/[NH+]=C\C=C1\C=C(C(=O)O)N[C@H](C(=O)O)C1)C(=O)O = 0.039

Required: photoluminescence quantum yield, one value per compound below.
1. NNC(=O)NNN1C(=O)c2cc(S(=O)(=O)[O-])cc3c(N)c(S(=O)(=O)[O-])cc(c23)C1=O
2. CCN(CC)c1ccc2ccc(=O)oc2c1
3. COC(=O)C(Cc1ccc2oc(-c3ccc4c(c3)c3ccccc3n4-c3ccccc3)nc2c1)NC(=O)OC(C)(C)C (stereo not drawn)
4. CN(CCO)c1ccc(/N=N/c2ccc([N+](=O)[O-])cc2)cc1

result:
0.5
0.25
1
0.0014
